# Tested on: Escherichia coli ATCC 25922
# Type: cell-based
# protocolConditions: ATCC 25922, 24 h
Where a SMILES comes first, the peptide text is derived from it. Bridges are numbered along the chain shown (N, C = ends). The star is where a group is joined. Palmitoyl = CCCCCCCCCCCCCCCC(=O)*

# molecule, measurementTarget, MBEC E. coli
data = [
    ("CCCCCCCCCCCCCCCC(=O)N[C@@H](CCCCN)C(=O)N[C@@H](CCCCN)C(=O)N[C@@H](CCCCN)C(=O)N[C@@H](CCCCN)C(N)=O [L2, C16-KKKK-NH2] (Palmitoyl-KKKK-NH2)", "Escherichia coli ATCC 25922", "64 µg/mL"),
    ("CCCCCCCCCCCCCCCC(=O)N[C@H]1CSSC[C@@H](C(N)=O)NC(=O)[C@H](CCCCN)NC(=O)[C@H](CCCCN)NC(=O)[C@H](CCCCN)NC1=O [C1, C16-CKKKC-NH2] (Palmitoyl-CKKKC-NH2; disulfide 1-5)", "Escherichia coli ATCC 25922", "256 µg/mL"),
    ("CCCCCCCCCCCCCCCC(=O)N[C@@H](CCCNC(=N)N)C(=O)N[C@@H](CCCCN)C(=O)N[C@@H](CCCCN)C(=O)N[C@@H](CCCCN)C(N)=O [L3, C16-RKKK-NH2] (Palmitoyl-RKKK-NH2)", "Escherichia coli ATCC 25922", "128 µg/mL"),
    ("CCCCCCCCCCCCCCCC(=O)N[C@H]1CSSC[C@@H](C(N)=O)NC(=O)[C@H](CCCNC(=N)N)NC(=O)[C@H](CCCCN)NC(=O)[C@H](CCCCN)NC(=O)[C@H](CCCCN)NC1=O [C6, C16-CKKKRC-NH2] (Palmitoyl-CKKKRC-NH2; disulfide 1-6)", "Escherichia coli ATCC 25922", ">256 µg/mL"),
    ("CCCCCCCCCCCCCCCC(=O)N[C@@H](CCCCN)C(=O)N[C@@H](CCCCN)C(=O)N[C@@H](CCCCN)C(N)=O", "Escherichia coli ATCC 25922", "64 µg/mL"),
    ("CCCCCCCCCCCCCCCC(=O)N[C@@H](CCCCN)C(=O)N[C@@H](CCCNC(=N)N)C(=O)N[C@@H](CCCCN)C(=O)N[C@@H](CCCCN)C(N)=O [L4, C16-KRKK-NH2] (Palmitoyl-KRKK-NH2)", "Escherichia coli ATCC 25922", "64 µg/mL"),
    ("CCCCCCCCCCCCCCCC(=O)N[C@@H](CCCCN)C(=O)N[C@@H](CCCCN)C(=O)N[C@@H](CCCNC(=N)N)C(=O)N[C@@H](CCCCN)C(N)=O [L5, C16-KKRK-NH2] (Palmitoyl-KKRK-NH2)", "Escherichia coli ATCC 25922", "64 µg/mL"),
    ("CCCCCCCCCCCCCCCC(=O)N[C@H]1CSSC[C@@H](C(N)=O)NC(=O)[C@H](CCCCN)NC(=O)[C@H](CCCCN)NC(=O)[C@H](CCCCN)NC(=O)[C@H](CCCNC(=N)N)NC1=O [C3, C16-CRKKKC-NH2] (Palmitoyl-CRKKKC-NH2; disulfide 1-6)", "Escherichia coli ATCC 25922", "256 µg/mL"),
    ("CCCCCCCCCCCCCCCC(=O)N[C@@H](CCCCN)C(=O)N[C@@H](CCCCN)C(=O)N[C@@H](CCCCN)C(=O)N[C@@H](CCCNC(=N)N)C(N)=O [L6, C16-KKKR-NH2] (Palmitoyl-KKKR-NH2)", "Escherichia coli ATCC 25922", "256 µg/mL"),
]

###

Here, each record is paired with measured MIC C. glabrata data.
# System: Candida glabrata ATCC 15126
# Assay type: cell-based
# protocolConditions: ATCC 15126, 24 h
Where a SMILES comes first, the peptide text is derived from it. Bridges are numbered along the chain shown (N, C = ends). The star is where a group is joined. Palmitoyl = CCCCCCCCCCCCCCCC(=O)*

# compound, unitAbbreviation, MIC C. glabrata
measured = [
    ("CCCCCCCCCCCCCCCC(=O)N[C@@H](CCCNC(=N)N)C(=O)N[C@@H](CCCCN)C(=O)N[C@@H](CCCCN)C(=O)N[C@@H](CCCCN)C(N)=O [L3, C16-RKKK-NH2] (Palmitoyl-RKKK-NH2)", "µg/mL", 64),
    ("CCCCCCCCCCCCCCCC(=O)N[C@H]1CSSC[C@@H](C(N)=O)NC(=O)[C@H](CCCNC(=N)N)NC(=O)[C@H](CCCCN)NC(=O)[C@H](CCCCN)NC(=O)[C@H](CCCCN)NC1=O [C6, C16-CKKKRC-NH2] (Palmitoyl-CKKKRC-NH2; disulfide 1-6)", "µg/mL", 4),
    ("CCCCCCCCCCCCCCCC(=O)N[C@@H](CCCCN)C(=O)N[C@@H](CCCNC(=N)N)C(=O)N[C@@H](CCCCN)C(=O)N[C@@H](CCCCN)C(N)=O [L4, C16-KRKK-NH2] (Palmitoyl-KRKK-NH2)", "µg/mL", 32),
    ("CCCCCCCCCCCCCCCC(=O)N[C@H]1CSSC[C@@H](C(N)=O)NC(=O)[C@H](CCCCN)NC(=O)[C@H](CCCCN)NC(=O)[C@H](CCCNC(=N)N)NC(=O)[C@H](CCCNC(=N)N)NC1=O [C7, C16-CRRKKC-NH2] (Palmitoyl-CRRKKC-NH2; disulfide 1-6)", "µg/mL", 4),
]

###

# Tested on: Candida albicans ATCC 10231
# Type: cell-based
# protocolConditions: ATCC 10231, 24 h
Where a SMILES comes first, the peptide text is derived from it. Bridges are numbered along the chain shown (N, C = ends). The star is where a group is joined. Palmitoyl = CCCCCCCCCCCCCCCC(=O)*
assayMetric: MBIC C. albicans (µg/mL)

# compound, reported
records = [
    ("CCCCCCCCCCCCCCCC(=O)N[C@@H](CCCCN)C(=O)N[C@@H](CCCCN)C(=O)N[C@@H](CCCNC(=N)N)C(=O)N[C@@H](CCCCN)C(N)=O [L5, C16-KKRK-NH2] (Palmitoyl-KKRK-NH2)", 64),
    ("CCCCCCCCCCCCCCCC(=O)N[C@@H](CCCCN)C(=O)N[C@@H](CCCNC(=N)N)C(=O)N[C@@H](CCCCN)C(=O)N[C@@H](CCCCN)C(N)=O [L4, C16-KRKK-NH2] (Palmitoyl-KRKK-NH2)", 32),
    ("CCCCCCCCCCCCCCCC(=O)N[C@H]1CSSC[C@@H](C(N)=O)NC(=O)[C@H](CCCCN)NC(=O)[C@H](CCCNC(=N)N)NC(=O)[C@H](CCCCN)NC(=O)[C@H](CCCCN)NC1=O [C5, C16-CKKRKC-NH2] (Palmitoyl-CKKRKC-NH2; disulfide 1-6)", 16),
    ("CCCCCCCCCCCCCCCC(=O)N[C@H]1CSSC[C@@H](C(N)=O)NC(=O)[C@H](CCCCN)NC(=O)[C@H](CCCCN)NC(=O)[C@H](CCCCN)NC(=O)[C@H](CCCNC(=N)N)NC1=O [C3, C16-CRKKKC-NH2] (Palmitoyl-CRKKKC-NH2; disulfide 1-6)", 8),
]

###

# Test system: Pseudomonas aeruginosa ATCC 9027
# Assay type: cell-based
# protocolConditions: ATCC 9027, 24 h
Where a SMILES comes first, the peptide text is derived from it. Bridges are numbered along the chain shown (N, C = ends). The star is where a group is joined. Palmitoyl = CCCCCCCCCCCCCCCC(=O)*

# compound, MBIC P. aeruginosa [µg/mL]
rows = [
    ("CCCCCCCCCCCCCCCC(=O)N[C@@H](CCCCN)C(=O)N[C@@H](CCCCN)C(=O)N[C@@H](CCCCN)C(=O)N[C@@H](CCCNC(=N)N)C(N)=O [L6, C16-KKKR-NH2] (Palmitoyl-KKKR-NH2)", 64),
    ("CCCCCCCCCCCCCCCC(=O)N[C@@H](CCCCN)C(=O)N[C@@H](CCCNC(=N)N)C(=O)N[C@@H](CCCCN)C(=O)N[C@@H](CCCCN)C(N)=O [L4, C16-KRKK-NH2] (Palmitoyl-KRKK-NH2)", 32),
    ("CCCCCCCCCCCCCCCC(=O)N[C@H]1CSSC[C@@H](C(N)=O)NC(=O)[C@H](CCCCN)NC(=O)[C@H](CCCNC(=N)N)NC(=O)[C@H](CCCCN)NC(=O)[C@H](CCCCN)NC1=O [C5, C16-CKKRKC-NH2] (Palmitoyl-CKKRKC-NH2; disulfide 1-6)", 64),
    ("CCCCCCCCCCCCCCCC(=O)N[C@@H](CCCNC(=N)N)C(=O)N[C@@H](CCCNC(=N)N)C(=O)N[C@@H](CCCCN)C(=O)N[C@@H](CCCCN)C(N)=O [L7, C16-RRKK-NH2] (Palmitoyl-RRKK-NH2)", 64),
]
